src = ChEMBL document CHEMBL1133120

- Measurement Target: UniProt P33535
- Sequence (P33535 whole entry): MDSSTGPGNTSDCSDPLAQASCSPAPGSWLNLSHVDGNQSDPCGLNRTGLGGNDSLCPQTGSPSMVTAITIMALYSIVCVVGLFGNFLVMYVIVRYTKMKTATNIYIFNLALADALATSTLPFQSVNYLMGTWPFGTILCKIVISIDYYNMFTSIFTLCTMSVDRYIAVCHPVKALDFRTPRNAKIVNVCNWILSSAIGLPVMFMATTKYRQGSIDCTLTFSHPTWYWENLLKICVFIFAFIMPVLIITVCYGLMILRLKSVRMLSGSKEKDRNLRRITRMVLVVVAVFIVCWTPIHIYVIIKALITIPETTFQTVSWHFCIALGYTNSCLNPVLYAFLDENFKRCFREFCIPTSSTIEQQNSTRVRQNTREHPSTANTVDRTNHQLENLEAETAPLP
- Protocol Details: Binding assay evaluated using DAMGO radioligand in CHO cells transfected with rat Opioid receptor mu 1
Where a SMILES comes first, the peptide text is derived from it. [ ]: non-standard residue; d: D form. Phe(4-NH2) = Nc1ccc(C[C@H](N)C(=O)O)cc1; Tic = O=C(O)[C@@H]1Cc2ccccc2CN1
Each item that follows carries a reported IC50.
Measure: IC50

compound="Nc1ccc(C[C@H](NC(=O)[C@H](Cc2ccccc2)NC(=O)[C@@H]2Cc3ccccc3CN2C(=O)[C@@H](N)Cc2ccc(O)cc2)C(=O)O)cc1 (H-Y[Tic]F[Phe(4-NH2)]-OH)" measure=IC50 observed="> 10 µM"
compound=N[C@@H](Cc1ccc(O)cc1)C(=O)N1Cc2ccccc2C[C@H]1C(=O)N[C@@H](Cc1ccccc1)C(=O)N[C@@H](Cc1ccc(N=C=S)cc1)C(=O)O measure=IC50 observed="> 10 µM"
compound="Nc1ccc(C[C@H](NC(=O)[C@@H]2Cc3ccccc3CN2C(=O)[C@@H](N)Cc2ccc(O)cc2)C(=O)N[C@@H](Cc2ccccc2)C(=O)O)cc1 (H-Y[Tic][Phe(4-NH2)]F-OH)" measure=IC50 observed="> 10 µM"
compound="N[C@@H](Cc1ccc(O)cc1)C(=O)N1Cc2ccccc2C[C@H]1C(=O)N[C@@H](Cc1ccccc1)C(=O)N[C@@H](Cc1ccccc1)C(=O)O (H-Y[Tic]FF-OH)" measure=IC50 observed="22.7 µM"
compound=N[C@@H](Cc1ccc(O)cc1)C(=O)N1Cc2ccccc2C[C@H]1C(=O)N[C@@H](Cc1ccc(N=C=S)cc1)C(=O)N[C@@H](Cc1ccccc1)C(=O)O measure=IC50 observed="> 10 µM"

###

- Measurement Target: Delta-type opioid receptor (Mus musculus)
- Sequence (P32300 whole entry): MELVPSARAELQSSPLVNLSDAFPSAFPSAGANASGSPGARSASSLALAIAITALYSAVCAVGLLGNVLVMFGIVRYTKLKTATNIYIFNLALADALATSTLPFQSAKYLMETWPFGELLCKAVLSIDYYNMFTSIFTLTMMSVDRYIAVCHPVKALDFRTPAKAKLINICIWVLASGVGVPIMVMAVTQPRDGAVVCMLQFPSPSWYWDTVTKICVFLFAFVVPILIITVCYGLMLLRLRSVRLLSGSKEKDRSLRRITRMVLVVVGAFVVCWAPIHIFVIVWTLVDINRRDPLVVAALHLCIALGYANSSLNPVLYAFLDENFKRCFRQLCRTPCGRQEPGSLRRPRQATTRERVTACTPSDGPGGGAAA
- Protocol Details: Binding assay evaluated using […] radioligand in CHO cells transfected with mouse Opioid receptor delta 1
Where a SMILES comes first, the peptide text is derived from it. [ ]: non-standard residue; d: D form. Phe(4-NH2) = Nc1ccc(C[C@H](N)C(=O)O)cc1; Tic = O=C(O)[C@@H]1Cc2ccccc2CN1
Each entry below carries its recorded IC50.
Measure: IC50 (nM)

molecule="N[C@@H](Cc1ccc(O)cc1)C(=O)N1Cc2ccccc2C[C@H]1C(=O)N[C@@H](Cc1ccccc1)C(=O)N[C@@H](Cc1ccccc1)C(=O)O (H-Y[Tic]FF-OH)" observed=5.8
molecule="Nc1ccc(C[C@H](NC(=O)[C@H](Cc2ccccc2)NC(=O)[C@@H]2Cc3ccccc3CN2C(=O)[C@@H](N)Cc2ccc(O)cc2)C(=O)O)cc1 (H-Y[Tic]F[Phe(4-NH2)]-OH)" observed=11.8
molecule="Nc1ccc(C[C@H](NC(=O)[C@@H]2Cc3ccccc3CN2C(=O)[C@@H](N)Cc2ccc(O)cc2)C(=O)N[C@@H](Cc2ccccc2)C(=O)O)cc1 (H-Y[Tic][Phe(4-NH2)]F-OH)" observed=87.7
molecule=N[C@@H](Cc1ccc(O)cc1)C(=O)N1Cc2ccccc2C[C@H]1C(=O)N[C@@H](Cc1ccccc1)C(=O)N[C@@H](Cc1ccc(N=C=S)cc1)C(=O)O observed=5.4
molecule=N[C@@H](Cc1ccc(O)cc1)C(=O)N1Cc2ccccc2C[C@H]1C(=O)N[C@@H](Cc1ccc(N=C=S)cc1)C(=O)N[C@@H](Cc1ccccc1)C(=O)O observed=12.4
